# measurementDescription: Cell Viability - LYMP2-025 (AID 976);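 also: cells exposed to compound for 24 h at 37 °C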
# particulars: LYMP2-025 lymphoblastoid cell viability; series mostly up to 92.2 µM
Inconclusive results are not listed. Active and inactive are the calls of the source. Calls follow the shape of the dose curve; as a rule, active = well fitted cell-killing curve with a large enough effect; inconclusive = small, poorly fitted or top-dose-only effect; inactive = flat fitted curve, though single readings scatter.
Reply using exactly one outcome from label 1 for active, label 0 for inactive

Query: recorded result category for CCCCC(CC)COC(=O)COc1ccc(Cl)cc1Cl (centres undefined) in this test
label 0

Query: recorded result category for c1ccc(CSCc2ccccc2)cc1 in this test
label 0

Query: recorded result category for O=C(O)/C=C/c1ccc(/C=C/C(=O)O)cc1 in this test
label 0

Query: recorded result category for CC(=O)c1ccc(Cl)c(Cl)c1Cl in this test
label 0

Query: recorded result category for COc1ccc(C(=O)Nc2ccccc2)cc1[N+](=O)[O-] in this test
label 0

Query: recorded result category for c1ccc2ncccc2c1 in this test
label 0

Query: recorded result category for Cc1ccc(S(N)(=O)=O)cc1 in this test
label 0

Query: recorded result category for Cc1ccc(O)c(N)c1 in this test
label 0

Query: recorded result category for Brc1cc(Oc2cc(Br)c(Br)c(Br)c2Br)c(Br)c(Br)c1Br in this test
label 0

Query: recorded result category for Cc1ccc(C(=O)O)cc1[N+](=O)[O-] in this test
label 0

Query: recorded result category for O=[N+]([O-])c1ccccc1Nc1ccccc1 in this test
label 0

Query: recorded result category for COc1ccc([N+](=O)[O-])cc1N in this test
label 0

Query: recorded result category for Oc1ccc2c(c1)OCO2 in this test
label 0

Query: recorded result category for CCOC(=O)C1OC1c1ccccc1 (centres undefined) in this test
label 0

Query: recorded result category for CN(C)c1ccc(Cc2ccc(N(C)C)cc2)cc1 in this test
label 0

Query: recorded result category for O=[N+]([O-])c1cccc(I)c1 in this test
label 0

Query: recorded result category for OC1CCCCC1 in this test
label 0

Query: recorded result category for O=C(OCc1ccccc1)c1ccccc1O in this test
label 0

Query: recorded result category for c1ccc(SCCSc2ccccc2)cc1 in this test
label 0

Query: recorded result category for OCC(CBr)(CBr)CBr in this test
label 0

Query: recorded result category for CC(C)COC(=O)COc1cc(Cl)c(Cl)cc1Cl in this test
label 0

Query: recorded result category for Oc1ccc(O)c2c(O)cccc12 in this test
label 0

Query: recorded result category for c1cc2c3c(c1)ccc1cccc(c13)C2 in this test
label 0

Query: recorded result category for CC(CCC(=O)O)(c1ccc(O)cc1)c1ccc(O)cc1 in this test
label 0

Query: recorded result category for CC(=O)Nc1cccc(C)c1 in this test
label 0

Query: recorded result category for c1ccc(COCc2ccccc2)cc1 in this test
label 0

Query: recorded result category for COc1cc(-c2ccc(N=C=O)c(OC)c2)ccc1N=C=O in this test
label 0

Query: recorded result category for Cc1c(N)cccc1Cl in this test
label 0

Query: recorded result category for Nc1ccc(-c2ccc(N)c(O)c2)cc1O in this test
label 0

Query: recorded result category for O=[N+]([O-])c1cc(N(CCO)CCO)ccc1NCCO in this test
label 0

Query: recorded result category for Brc1ccc(-c2ccccc2)cc1 in this test
label 0

Query: recorded result category for O=C1OC(=O)c2ccccc21 in this test
label 0

Query: recorded result category for CC(=O)CC(=O)Nc1ccccc1 in this test
label 0

Query: recorded result category for Cc1cccnc1 in this test
label 0

Query: recorded result category for C[Si](C)(C)Cl in this test
label 0

Query: recorded result category for Cc1cc(=O)oc2cc(O)cc(O)c12 in this test
label 0

Query: recorded result category for CC(/C=C/C=C(C)/C=C/C(=O)O)=C\C=C\C=C(C)\C=C\C=C(C)\C=C\C(=O)O in this test
label 0

Query: recorded result category for Nc1cnn([C@@H]2O[C@H](CO)[C@@H](O)[C@H]2O)c(=O)n1 in this test
label 0

Query: recorded result category for CC(C)S in this test
label 0

Query: recorded result category for C1CCCNCC1 in this test
label 0

Query: recorded result category for Oc1c(Cl)cc(Cl)c(Cl)c1Cl in this test
label 0

Query: recorded result category for CCOc1ccc2nc(N)sc2c1 in this test
label 0

Query: recorded result category for CCCCCCCC/C=C\CCCCCCCC(=O)N(CCO)CCO in this test
label 0

Query: recorded result category for O=C(Cl)c1ccc([N+](=O)[O-])cc1 in this test
label 0

Query: recorded result category for S=C(NC1CCCCC1)NC1CCCCC1 in this test
label 0

Query: recorded result category for CCCCC(CC)COCCCN (centres undefined) in this test
label 0

Query: recorded result category for Oc1cc(Cl)cc(Cl)c1Cl in this test
label 0

Query: recorded result category for Cc1ccc2ccc3cccc4ccc1c2c34 in this test
label 0

Query: recorded result category for CCNC(=S)NCC in this test
label 0

Query: recorded result category for O=CC(=O)c1ccccc1 in this test
label 0

Query: recorded result category for CCCCOC(=O)COc1ccc(Cl)cc1Cl in this test
label 0

Query: recorded result category for Brc1cc(Br)c(Oc2cc(Br)c(Br)cc2Br)cc1Br in this test
label 0

Query: recorded result category for C=CC(=O)OCCCCCCOC(=O)C=C in this test
label 1

Query: recorded result category for Nc1ccc2c(c1)C(=O)c1ccccc1C2=O in this test
label 0

Query: recorded result category for NC(=O)c1ccc([N+](=O)[O-])cc1 in this test
label 0

Query: recorded result category for NC(=O)Nc1nc2ccccc2[nH]1 in this test
label 0

Query: recorded result category for C=CC1CO1 (centres undefined) in this test
label 0

Query: recorded result category for Nc1ccccc1O in this test
label 0

Query: recorded result category for C[C@@H]1CC2(OC(O)[C@]3(C)O[C@H]23)O[C@H]2C[C@@]3(C)[C@@H]4CC[C@H]5C(C)(C)C(O[C@@H]6OC[C@@H](O)[C@H](O)[C@H]6O)CC[C@@]56C[C@@]46CC[C@]3(C)[C@@H]12 (some centres undefined) in this test
label 0
